Molecular target: His-tagged human Aurora A (Homo sapiens)
Sequence (O14965 1-403): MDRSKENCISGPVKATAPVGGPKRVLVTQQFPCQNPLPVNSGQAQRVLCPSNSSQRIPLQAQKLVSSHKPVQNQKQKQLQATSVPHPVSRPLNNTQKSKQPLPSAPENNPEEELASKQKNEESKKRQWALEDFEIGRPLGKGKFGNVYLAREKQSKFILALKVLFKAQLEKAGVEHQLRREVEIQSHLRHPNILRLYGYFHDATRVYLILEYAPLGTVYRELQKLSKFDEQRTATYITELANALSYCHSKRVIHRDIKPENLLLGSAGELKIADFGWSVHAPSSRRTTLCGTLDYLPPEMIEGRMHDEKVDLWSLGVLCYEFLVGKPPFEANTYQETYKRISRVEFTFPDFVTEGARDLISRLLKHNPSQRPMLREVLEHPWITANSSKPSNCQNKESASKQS
Where a name gives a salt, the structure may show the parent alone.
MEASUREMENT_TYPE: IC50 (nM)

COMPOUND | MEASURED_ON | MEASUREMENT_UNIT | IC50
Cc1cc(Nc2cc(C3CC3)[nH]n2)nc(N2C[C@H](C(=O)O)C[C@H](C3CCCCC3)C2)n1 (stereo in doubt) [Example 21, trifluoroacetate] | His-tagged human Aurora A (Homo sapiens) | nM | 0.81

A: Cc1cc(Nc2cc(C3CC3)[nH]n2)nc(N2C[C@@H](C(=O)O)C[C@@H](C3CCCCC3)C2)n1 (stereo in doubt) [Example 20, trifluoroacetate]
B: Cc1cc(Nc2cc[nH]n2)nc(N2C[C@H](C(=O)O)C[C@H](C3CCCCC3)C2)n1 (relative stereo) [Example 13, trifluoroacetate]
C: Cc1cc(Nc2cc[nH]n2)nc(N2C[C@H](C(=O)O)C[C@H](c3ccccc3)C2)n1 (relative stereo) [Example 10, trifluoroacetate]
IN: Arrange the 3 entries by IC50 so the values rise. # answer = labels listed in requested order
OUT: B, A, C
